# subject_of_test: bovine GRK2 (S670A) (Bos taurus, UniProt P21146, S670A)
# Sequence (P21146 whole entry S670A): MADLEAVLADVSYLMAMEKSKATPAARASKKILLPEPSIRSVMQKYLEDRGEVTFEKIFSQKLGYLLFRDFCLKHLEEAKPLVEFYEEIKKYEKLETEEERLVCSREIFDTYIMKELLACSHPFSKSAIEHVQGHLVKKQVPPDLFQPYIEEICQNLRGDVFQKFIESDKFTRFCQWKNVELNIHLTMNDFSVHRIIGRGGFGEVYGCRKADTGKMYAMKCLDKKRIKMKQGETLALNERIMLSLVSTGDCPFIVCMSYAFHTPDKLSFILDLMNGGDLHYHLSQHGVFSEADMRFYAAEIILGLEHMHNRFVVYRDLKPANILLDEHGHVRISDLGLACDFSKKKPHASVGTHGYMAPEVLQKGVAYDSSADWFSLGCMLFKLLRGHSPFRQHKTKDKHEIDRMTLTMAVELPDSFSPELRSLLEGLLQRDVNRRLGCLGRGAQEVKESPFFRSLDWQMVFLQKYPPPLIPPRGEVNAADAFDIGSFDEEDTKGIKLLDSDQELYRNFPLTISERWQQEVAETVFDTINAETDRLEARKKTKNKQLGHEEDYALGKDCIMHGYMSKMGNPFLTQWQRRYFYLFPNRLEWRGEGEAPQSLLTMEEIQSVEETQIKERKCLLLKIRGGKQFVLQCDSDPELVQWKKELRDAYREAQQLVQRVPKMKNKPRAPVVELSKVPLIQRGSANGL
# assay: GRK2 kinase inhibition
quantity_measured: decrease in GRK2 potency relative to 14as (fold)

P = O=C(NCCc1cc[nH]n1)c1cc([C@@H]2CCNC[C@H]2COc2ccc3c(c2)OCO3)ccc1F [14at]
Q = Cn1nccc1CNC(=O)c1cc([C@@H]2CCNC[C@H]2COc2ccc3c(c2)OCO3)ccc1F [14aw]
R = O=C(NCc1cn[nH]c1)c1cc([C@@H]2CCNC[C@H]2COc2ccc3c(c2)OCO3)ccc1F [14ax]
S = Cn1ccc(CNC(=O)c2cc([C@@H]3CCNC[C@H]3COc3ccc4c(c3)OCO4)ccc2F)n1 [14av]
Data request: Sort ascending by decrease in GRK2 potency relative to 14as: all records listed above. # answer = labels listed in requested order
Data returned: R, P, S, Q
(R: 10 fold, P: 26 fold, S: 40 fold, Q: 70 fold)

----------
# assay: Abbreviated pharmacokinetic study in mice after IP administration
# details: female, CD-1, mouse, plasma, ip, 10 mg/kg
quantity_measured: concentration at 30 min (nM)

a = O=C(NCc1ccn[nH]1)c1cc([C@@H]2CCNC[C@H]2COc2ccc3c(c2)OCO3)ccc1F [14as]
b = Cn1c(CNc2cccc(C(=O)NCc3ccccc3C(F)(F)F)c2)nnc1-c1ccncc1 [compound 2, reference compound]
Data request: Input pair: a , b . Output: entry with lower concentration at 30 min. Give the chosen item's label as your response.
Data returned: b
